Recorded inhibition by entry
target: RAC-alpha serine/threonine-protein kinase (Homo sapiens); assay: Inhibition of PKB at 100 uM by radioactive kinase assay relative to control
Peptide text beside a SMILES is read from it.
Please report the result as a number followed by the unit.

CCC[C@H](NC(=O)[C@H](CCCNC(=N)N)NC(=O)[C@@H]1CCCN1C(=O)[C@@H](N)CCCNC(=N)N)C(=O)N[C@@H](Cc1ccc(O)cc1)C(=O)N[C@@H](CN)C(=O)N(CC(N)=O)CC(C)CC (some centres not stated) (HELM PEPTIDE1{R.P.R.[Nva].Y.[NC[C@H](N[*:1])C(=O)[*:2]].[CCC(C)CN(CC(=O)[*:2])[*:1]].[am]}$$$$V2.0)	39%

Would you kindly look at the next entry?
Measured inhibition of CCC[C@H](NC(=O)[C@H](CCCNC(=N)N)N(C)C(=O)[C@@H]1CCCN1C(=O)[C@@H](N)CCCNC(=N)N)C(=O)N[C@@H](Cc1ccc(O)cc1)C(=O)N[C@@H](CN)C(=O)N[C@@H](CCC(C)C)C(N)=O (HELM PEPTIDE1{R.P.[meR].[Nva].Y.[NC[C@H](N[*:1])C(=O)[*:2]].[CC(C)CC[C@H](N[*:1])C(=O)[*:2]].[am]}$$$$V2.0) : 92%

* * *

target: RAC-alpha serine/threonine-protein kinase (Homo sapiens, UniProt P31749); assay: Inhibition of PKB at 20 uM by radioactive kinase assay relative to control
Sequence (P31749 whole entry): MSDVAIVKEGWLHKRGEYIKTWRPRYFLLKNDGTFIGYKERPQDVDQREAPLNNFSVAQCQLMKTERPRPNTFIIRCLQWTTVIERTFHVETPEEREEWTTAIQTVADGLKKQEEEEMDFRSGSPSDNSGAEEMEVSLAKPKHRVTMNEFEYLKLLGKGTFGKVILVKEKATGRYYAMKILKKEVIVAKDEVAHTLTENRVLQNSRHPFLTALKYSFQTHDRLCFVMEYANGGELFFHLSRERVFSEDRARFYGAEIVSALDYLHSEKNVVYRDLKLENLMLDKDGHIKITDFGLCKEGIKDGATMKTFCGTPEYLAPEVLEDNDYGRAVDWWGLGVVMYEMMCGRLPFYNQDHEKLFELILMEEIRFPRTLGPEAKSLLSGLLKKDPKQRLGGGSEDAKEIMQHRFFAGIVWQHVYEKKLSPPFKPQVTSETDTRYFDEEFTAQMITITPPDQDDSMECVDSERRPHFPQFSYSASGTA
Peptide text beside a SMILES is read from it.
Items are presented alongside their recorded inhibition.
Express your answer as a number followed by its unit.

CCC[C@H](NC(=O)[C@H](CCCNC(=N)N)NC(=O)[C@@H]1CCCN1C(=O)[C@H](CCCNC(=N)N)NC(=O)[C@H](CCCCN)NC(C)=O)C(=O)N[C@@H](Cc1ccc(O)cc1)C(=O)N[C@@H](CN)C(=O)N[C@@H](CCC(C)C)C(=O)O (HELM PEPTIDE1{[ac].K.R.P.R.[Nva].Y.[NC[C@H](N[*:1])C(=O)[*:2]].[CC(C)CC[C@H](N[*:1])C(=O)O]}$$$$V2.0)	46%

Switching to the query record.
Record CCC[C@H](NC(=O)[C@H](CCCNC(=N)N)NC(=O)[C@@H]1CCCN1C(=O)[C@H](CCCNC(=N)N)NC(=O)[C@@H](N)CCCCN)C(=O)N[C@@H](Cc1ccc(O)cc1)C(=O)N[C@@H](CN)C(=O)N[C@@H](CCC(C)C)C(N)=O , field inhibition: 92%
